ASSAY NAME: physchem
ASSAY CONDITIONS: ethanol, organic solvent or mixture
MEASUREMENT NAME: solubility

Note to self: solubility recorded for O.O=P1(N(CCCl)CCCl)NCCCO1 (stereo not shown) [cyclophosphamide monohydrate] was > 500 mg/mL

---

ASSAY NAME: physchem
ASSAY CONDITIONS: polyethylene glycol, organic solvent or mixture
MEASUREMENT NAME: solubility

Please fill in: solubility reported for O.O=P1(N(CCCl)CCCl)NCCCO1 (stereo not shown) [cyclophosphamide monohydrate] = > 500 mg/mL
